Values compiled from patent US20230416232A1.

- TEST_SYSTEM: EGFR (A767_dupASV) expressing Ba/F3 stable cell line (Homo sapiens, UniProt P00533, DUP767-769, cells depend on it)
- Sequence (P00533 with tags, fused parts or gaps DUP767-769): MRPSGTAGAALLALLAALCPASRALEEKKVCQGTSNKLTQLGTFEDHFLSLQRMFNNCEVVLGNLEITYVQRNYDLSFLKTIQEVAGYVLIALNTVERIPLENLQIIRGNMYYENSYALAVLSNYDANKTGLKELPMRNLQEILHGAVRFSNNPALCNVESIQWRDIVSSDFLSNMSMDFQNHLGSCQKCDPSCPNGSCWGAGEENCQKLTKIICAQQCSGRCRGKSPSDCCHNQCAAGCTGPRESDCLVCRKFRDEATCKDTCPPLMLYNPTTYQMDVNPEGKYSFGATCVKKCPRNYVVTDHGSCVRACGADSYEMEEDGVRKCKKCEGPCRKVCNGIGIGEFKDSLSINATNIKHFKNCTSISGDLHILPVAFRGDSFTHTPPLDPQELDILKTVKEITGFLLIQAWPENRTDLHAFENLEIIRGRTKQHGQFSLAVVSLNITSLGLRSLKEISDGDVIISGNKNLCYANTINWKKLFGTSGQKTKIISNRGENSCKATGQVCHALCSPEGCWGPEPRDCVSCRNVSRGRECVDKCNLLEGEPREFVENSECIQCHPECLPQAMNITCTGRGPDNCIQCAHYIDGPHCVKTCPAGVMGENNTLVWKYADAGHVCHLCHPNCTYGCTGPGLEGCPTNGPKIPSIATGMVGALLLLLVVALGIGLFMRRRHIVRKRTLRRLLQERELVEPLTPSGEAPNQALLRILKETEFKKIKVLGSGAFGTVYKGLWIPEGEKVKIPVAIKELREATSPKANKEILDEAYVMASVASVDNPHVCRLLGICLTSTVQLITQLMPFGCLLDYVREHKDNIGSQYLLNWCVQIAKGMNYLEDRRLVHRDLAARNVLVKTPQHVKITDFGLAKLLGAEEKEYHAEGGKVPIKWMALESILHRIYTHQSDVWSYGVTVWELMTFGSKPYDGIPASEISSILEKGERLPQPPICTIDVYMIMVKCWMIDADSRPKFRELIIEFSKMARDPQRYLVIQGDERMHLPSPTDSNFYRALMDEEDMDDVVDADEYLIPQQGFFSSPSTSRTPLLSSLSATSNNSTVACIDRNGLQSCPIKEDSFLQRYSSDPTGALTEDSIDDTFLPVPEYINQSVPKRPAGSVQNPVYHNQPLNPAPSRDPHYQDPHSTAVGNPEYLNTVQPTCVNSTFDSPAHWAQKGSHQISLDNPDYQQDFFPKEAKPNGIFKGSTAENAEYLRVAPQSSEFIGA
- PROTOCOL_TEXT: Cellular proliferation (Alamar Blue) assay, EGFR (A767_dupASV) Ba/F3
- Format: cell-based
- STUDY_CONDITIONS: 72 hr, read-out: A767 IC50
Structures can show the parent of a compound that is named as a salt.
Response field label takes t when GI50 is strictly below 90 nM and f in all other cases.

> print(dat)
                                    molecule  discrete.label
 1  C=CC(=O)Nc1ccc(F)c(Nc2nc(Nc3cnn(C)c3)ncc2-c2ccc(F)c(Br)c2)c1 [Compound 18, trifluoroacetate]               f
 2  C=CC(=O)Nc1ccc(F)c(Nc2nc(Nc3cnn(C)c3)ncc2-c2cc(F)ccc2OC)c1 [Compound 9]               f
 3  C=CC(=O)Nc1cccc(Nc2nc(Nc3cnn(C)c3)ncc2-c2ccc(Br)c(F)c2)c1 [Compound 115]               t
 4  C=CC(=O)Nc1ccc(F)c(Nc2nc(Nc3cnn(C)c3)ncc2-c2ccc(OC(F)(F)F)c(F)c2)c1 [Compound 14]               t
 5  C=CC(=O)Nc1ccc(F)c(Nc2nc(Nc3cnn(C)c3)ncc2-c2ccc(F)cc2Cl)c1 [Compound 12]               f
 6  C=CC(=O)Nc1ccc(F)c(Nc2nc(Nc3cnn(C)c3)ncc2-c2ccc(Cl)c(Cl)c2)c1 [Compound 50]               t
 7  CN(C)C/C=C/C(=O)Nc1ccc(F)c(Nc2nc(Nc3cnn(C)c3)ncc2-c2cc(F)cc(F)c2)c1 [Compound 117]               f
 8  C=CC(=O)Nc1ccc(F)c(Nc2nc(Nc3cn(C)nc3Cl)ncc2-c2cc(F)cc(OC)c2)c1 [Compound 106]               t
 9  C=CC(=O)Nc1cc(Br)cc(Nc2nc(Nc3cnn(C)c3)ncc2-c2cc(F)cc(C(F)F)c2)c1 [Compound 174]               f
10  C=CC(=O)Nc1ccc(F)c(Nc2nc(Nc3cn(C)nc3Cl)ncc2-c2ccc(F)c(Cl)c2)c1 [Compound 52]               f
11  C=CC(=O)Nc1ccc(F)c(Nc2nc(Nc3cnn(C)c3)ncc2-c2cnc(F)c(F)c2)c1 [Compound 29]               t
12  C=CC(=O)Nc1ccc(F)c(Nc2nc(Nc3cnn(C)c3)ncc2-c2cc(F)c(Cl)c(F)c2)c1 [Compound 158]               t
13  C=CC(=O)Nc1cccc(Nc2nc(Nc3cnn(C)c3)ncc2-c2ccc(F)c(Cl)c2)c1 [Compound 49]               t
14  C=CC(=O)Nc1ccc(F)c(Nc2nc(Nc3cnn(CCOC)c3)ncc2-c2ccc(F)c(Cl)c2)c1 [Compound 100]               f
15  C=CC(=O)Nc1ccc(F)c(Nc2nc(Nc3cnn(C)c3)ncc2-c2ccc(C(F)(F)F)cc2F)c1 [Compound 21]               f
16  C=CC(=O)Nc1ccc(F)c(Nc2nc(Nc3cnn(C)c3)ncc2-c2ccc(N(C)C)c(F)c2)c1 [Compound 28]               t
17  C=CC(=O)Nc1cc(Cl)cc(Nc2nc(Nc3cnn(C)c3)ncc2-c2ccc(Br)c(F)c2)c1 [Compound 159]               t
18  C=CC(=O)Nc1ccc(F)c(Nc2nc(Nc3cnn(C)c3)ncc2-c2cnc(Cl)c(Cl)c2)c1 [Compound 17]               t
19  C=CC(=O)Nc1ccc(F)c(Nc2nc(Nc3cnn(C)c3)ncc2-c2ccc(N3CC(N(C)C)C3)c(F)c2)c1 [Compound 83]               f
20  C=CC(=O)Nc1cc(F)cc(Nc2nc(Nc3cnn(C)c3)ncc2-c2cc(F)c(Br)c(Cl)c2)c1 [Compound 163]               t
21  C=CC(=O)Nc1ccc(F)c(Nc2nc(Nc3cnn(C)c3)ncc2-c2cc(F)cc(Br)c2)c1 [Compound 109]               f
22  [2H]C([2H])=CC(=O)Nc1ccc(F)c(Nc2nc(Nc3cnn(C)c3)ncc2-c2cnc(F)c(F)c2)c1 [Compound 103]               t
23  CN(C)C/C=C/C(=O)Nc1ccc(F)c(Nc2nc(Nc3cnn(C)c3)ncc2-c2cc(F)c(Br)c(F)c2)c1 [Compound 171]               f
24  C=CC(=O)Nc1ccc(F)c(Nc2nc(Nc3cnn(C)c3)ncc2-c2cnc(Cl)c(C(F)(F)F)c2)c1 [Compound 44]               t
25  C=CC(=O)Nc1cccc(Nc2nc(Nc3cnn(C)c3)ncc2-c2ccc(OC)c(F)c2)c1 [Compound 69]               t
26  C=CC(=O)Nc1ccc(F)c(Nc2nc(Nc3cnn(C)c3)ncc2-c2ccc(Cl)c(Br)c2)c1 [Compound 90]               f
27  C=CC(=O)Nc1ccc(F)c(Nc2nc(Nc3cnn(C)c3)ncc2-c2ccc(N3CCCCC3)c(F)c2)c1 [Compound 78]               t
28  C=CC(=O)Nc1ccc(F)c(Nc2nc(Nc3cnn(C)c3)ncc2-c2ccc(C(F)(F)F)c(Cl)c2)c1 [Compound 54]               f
